Reference for the values: PubChem BioAssay (NCI)

Experiment: NCI Yeast Anticancer Drug Screen. Data for the rad18 strain (AID 177)
Conditions: S. cerevisiae rad18 mutant growth inhibition; at 100.0 µM; hits give high values
This is part of a sample that, as a whole, favours compounds with a hit. Of some 79,000 tested, about 15% had one in any assay.

# COMPOUND, UNIT SPEC, growth inhibition
rows = [
    ("CN1CCN(c2ccc3nc(-c4ccc5nc(-c6ccc(O)cc6)[nH]c5c4)[nH]c3c2)CC1", "%", 97),
    ("CN(Cc1cccc2ccccc12)Cc1cccc2ccccc12", "%", 6),
    ("O=CC(=C(I)I)c1ccccc1", "%", 95),
    ("c1ccc(C2=NNC3c4ccccc4-c4ccccc4N3C2)cc1 (stereo unspecified)", "%", 55),
    ("COc1cc(C(C)C(C(=O)O)C(=O)C(=O)O)cc(OC)c1OC (stereo unspecified)", "%", 9),
    ("[O-]c1c2cc(-[n+]3c(-c4ccccc4)cc(-c4ccccc4)cc3-c3ccccc3)cc1COCCOCCOCCOCCOC2", "%", 74),
    ("OC(c1ccc(Br)cc1)(c1cccs1)C1CC1 (stereo unspecified)", "%", 91),
    ("CC[C@@]1(OC(=O)CN(C)C)C(=O)OCc2c1cc1n(c2=O)Cc2cc3ccccc3nc2-1", "%", 96),
    ("Cc1ccc2oc(-c3cccc(N)c3)nc2c1", "%", 53),
    ("Cc1cc(NCCCN(C)C)c2ccc3c(ccc4c(NCCCN(C)C)cc(C)nc43)c2n1", "%", 34),
    ("COc1ccc(C(=O)NCCN(C)C)c2nc3ccccc3cc12", "%", 66),
]
